Molecular target: 3-oxo-5-alpha-steroid 4-dehydrogenase 1 (Homo sapiens, UniProt P18405)
Sequence (P18405 whole entry): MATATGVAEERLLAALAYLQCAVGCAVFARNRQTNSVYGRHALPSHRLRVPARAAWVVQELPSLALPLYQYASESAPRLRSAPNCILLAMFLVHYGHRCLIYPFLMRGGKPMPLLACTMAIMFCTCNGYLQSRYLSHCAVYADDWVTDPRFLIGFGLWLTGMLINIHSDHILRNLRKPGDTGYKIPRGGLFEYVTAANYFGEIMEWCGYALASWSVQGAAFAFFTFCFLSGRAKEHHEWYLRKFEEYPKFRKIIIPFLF
Assay: In vitro inhibitory activity against human Steroid 5-alpha-reductase type 1 in COS-1 cells was determined
Label YES when IC50 is strictly below 60 nM; otherwise label NO.

Exercise: Please state whether IC50 is below 60 nM for O=C(O)CCCOc1ccccc1-c1cc2cc(C(=O)NC(c3ccccc3)c3ccccc3)ccc2o1
Key: NO

Exercise: Take the compound O=C(O)CCCOc1ccccc1-c1cc2ccc(C(=O)NC(c3ccc(F)cc3)c3ccc(F)cc3)cc2o1 and say whether its IC50 is less than 60 nM.
Key: YES

Exercise: Confirm or reject: IC50 of COc1ccc(C(NC(=O)c2ccc3cc(-c4ccccc4OCCCC(=O)O)oc3c2)c2ccc(OC)cc2)cc1 lies strictly below 60 nM
Key: NO

Exercise: Hi there! Is IC50 for CC(C)Cc1ccc(C(Nc2cccc(C(=O)c3cn(CCCC(=O)O)c4ccccc34)c2)c2ccc(CC(C)C)cc2)cc1 below 60 nM, do you know?
Key: YES

Exercise: hey, is IC50 for O=C(O)CCCOc1ccccc1-c1cc2ccc(C(=O)NC(c3ccccc3)c3ccccc3)cc2o1 lower than 60 nM or not?
Key: NO
